Where do these numbers come from? They come from PubChem BioAssay (NCATS).

Assay: Primary qHTS for small molecule stabilizers of the endoplasmic reticulum resident proteome: Secreted ER Calcium Modulated Protein (SERCaMP) assay (AID 1508630); further: on the % scale 0 is the no-effect control and ±100 the full control effect
Conditions: SH-SY5Y GLuc-SERCaMP (Gaussia luciferase released on ER calcium loss) secretion, thapsigargin, luminescence; series mostly up to 38.4 µM
Records with an inconclusive call do not appear. Active and inactive are the calls of the source. The call rests on the fitted dose curve; in most records, active means well fitted inhibition curve with a large enough effect; inconclusive means small, poorly fitted or top-dose-only effect; inactive means no such curve, though single readings can be large or run the other way.
READOUT_NAME: outcome

STRUCTURE_STRING: Cc1cnc(CNc2ncncc2-c2ccc3c(c2)OCO3)cn1
outcome: inactive
--
STRUCTURE_STRING: COc1ccc(C(=O)N2CCC3(CCCN(Cc4nccs4)C3)CC2)cc1
outcome: inactive
--
STRUCTURE_STRING: CS(=O)(=O)N1CCC2(CC1)CN(c1ccc(-c3ccccc3)cc1)C2
outcome: inactive
--
STRUCTURE_STRING: COc1ccc(C(=O)N2CCC3(CCN(Cc4cc(C(F)(F)F)cc(C(F)(F)F)c4)CC3)CC2)cc1
outcome: inactive

Now let's try a different one.
## Task Quick one: outcome for N#Cc1ccc(CN2CC3(CCN(C(=O)c4cnccn4)CC3)C2)cc1 ?
## Result inactive

----------
Assay: qHTS Assay for Lipid Storage Modulators (AID 1519)
Conditions: Drosophila S3 cells, BODIPY lipid droplet/cell ratio, laser cytometry; measured here: cell count channel max response; cells loaded with oleic acid
Results filed as inconclusive are left out.
READOUT_NAME: max response (%)
Give the quantity in %, number only.

## Task Quick one: max response for CN1CCN(c2ncnc3ccc(-c4cccc(NS(C)(=O)=O)c4)cc23)CC1 ?
## Result -11.5

## Task Next: CCN1CCC[C@@H]1CNC(=O)c1cc(S(N)(=O)=O)ccc1OC
## Result -12.9

## Task Next: O=C(O)c1cc(=O)c2cccc(O)c2[nH]1
## Result 27.2

## Task Next: Cc1nc2cnc(Nc3ccccc3)nc2n(C[C@H]2CCCO2)c1=O
## Result -3

## Task Next: O=C(c1cnccn1)N1CCC2(CC1)CN(c1ccccn1)C2
## Result -1.81

## Task Next: O=c1c(-c2ccc(F)cc2)nc2cnc(N3CCNCC3)nc2n1Cc1cccs1
## Result 8.56

## Task Next: COc1ncc2nc(-c3ccc(Cl)cc3)c(=O)n(-c3ccccc3)c2n1
## Result 12

## Task Next: O=C(Nc1ccccc1)N1CC[C@@]2(CCCN(C(=O)c3csnn3)C2)C1
## Result -5.15

## Task Next: O=S(=O)(c1ccccc1)N1CCC2(CCN(Cc3nccs3)CC2)CC1
## Result 4.88

## Task Next: COCCn1c(=O)c(C)nc2cnc(Oc3cccc(Cl)c3)nc21
## Result 15.1

## Task Next: CN1[C@@H](CC(=O)c2ccccc2)CCC[C@@H]1C[C@@H](O)c1ccccc1
## Result -6.57

## Task Next: COc1ccc(NC(=O)N2CC[C@@]3(CCCN(C(=O)c4ccco4)C3)C2)cc1
## Result 9.78

## Task Next: COc1ccc(C(=O)N2CCC3(CC2)CN(c2ncccn2)C3)cc1
## Result 12.3

## Task Next: COc1ccc(C(=O)N2CCC3(CC2)CN(c2ccc(-c4ccccc4)cc2)C3)cc1
## Result 9.2

## Task Next: CN(C)CCCO[C@H]1C([C@H](O)CO)O[C@@H]2OC(C)(C)O[C@@H]21 (some centres not stated)
## Result 19.8

## Task Next: Cc1noc(C)c1-c1nc(N2CCOCC2)c2ccccc2n1
## Result 6.88

## Task Next: CN(C)c1ncc2nc(-c3ccc(F)cc3)c(=O)n(C3CC3)c2n1
## Result 10.2

## Task Next: O=C(c1ccncc1)N1CCC2(CC1)CCN(c1ccncc1)CC2
## Result -11.6

## Task Next: c1ccc(Nc2ncnc3ccc(-c4cccnc4)cc23)cc1
## Result -20.7

## Task Next: CN(Cc1ccco1)c1ccnc(-c2cccc(NS(C)(=O)=O)c2)n1
## Result 18.7

## Task Next: COC(=O)c1c(C)cc(OC(=O)c2c(C)cc(O)c(C=O)c2O)c(C)c1O
## Result -15.4

## Task Next: O=C(c1ccncc1)N1CCC2(CCCN(C(c3ccccc3)c3ccccc3)C2)CC1
## Result 12.6

----------
Test: Stat Signaling Pathway (AID 446);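 further: ME-180 cervical cancer cells given 40 pM IL-6 alongside compound; SIE-controlled beta-lactamase reporter measured as 460/530 nm FRET emission ratio; on the % scale 0 is the no-effect control and ±100 the full control effect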
Conditions: ME-180 SIE beta-lactamase reporter, IL-6 stimulated, 5 h; at 7.69 µM (top of the series) unless noted
Results filed as inconclusive are left out. Active and inactive are the calls of the source. The call rests on the fitted dose curve; in most records, active means well fitted curve in either direction with a large enough effect (not every such curve was filed as active); inconclusive means small, poorly fitted or top-dose-only effect, or another doubt; inactive means flat fitted curve, though single readings scatter.
READOUT_NAME: activity, negative = inhibition

## Task Quick one: activity, negative = inhibition for O=C(Nc1ccccc1)N1CCCC2(CCNCC2)C1 ?
## Result 4.83% (inactive)

## Task Next: O=c1cnc2cnc(Nc3ccccc3)nc2n1CCc1ccccc1
## Result -12.1% (inactive)

## Task Next: COc1cccc(Cn2c(=O)c(-c3cc(F)cc(F)c3)nc3cncnc32)c1
## Result -1.76% (inactive)

## Task Next: COc1cccc(Cn2c(=O)c(-c3ccc(Cl)cc3)nc3cnc(N4CCN(C)CC4)nc32)c1
## Result 4.58% (inactive)

## Task Next: O=C(Nc1ccccc1)N1CCC2(CC1)CCN(C(=O)c1cccc(F)c1)CC2
## Result -12.9% (inactive)

## Task Next: CN(C)c1ccc(-c2cncnc2N(C)Cc2ccco2)cc1
## Result -5.82% (inactive)

## Task Next: COc1c(O)cc2c(c1O)[C@@H]1O[C@@H](CO)[C@@H](O)[C@@H](O)[C@@H]1OC2=O
## Result -7.81% [at 17.2 µM] (inactive)

## Task Next: COc1ccc2[nH]cc(CCNc3cc(-c4ccc(C(=O)N(C)C)cc4)ncn3)c2c1
## Result -10.6% (inactive)

## Task Next: COCCNc1nc(-c2cccc(NS(C)(=O)=O)c2)nc2ccccc12
## Result -10.1% (inactive)

## Task Next: O=C(c1cc(C(F)(F)F)cc(C(F)(F)F)c1)N1CCC2(CC1)CN(Cc1ccccc1)C2
## Result 9.42% (inactive)

## Task Next: O=c1c(-c2ccccc2)nc2cnc(Oc3cccc(Cl)c3)nc2n1C[C@H]1CCCO1
## Result -8.43% (inactive)

## Task Next: N#Cc1ccc(CN2CCCC3(CCN(C(=O)c4ccncc4)CC3)C2)cc1
## Result 1.22% (inactive)

## Task Next: Cc1noc(C)c1-c1nccc(N2CCN(C)CC2)n1
## Result 11.7% (inactive)

## Task Next: CN(C)c1cc(-c2cccc(NS(C)(=O)=O)c2)ncn1
## Result 1.39% (inactive)

## Task Next: CN1CCN(c2ccnc(-c3cccc(NS(C)(=O)=O)c3)n2)CC1
## Result 7.5% (inactive)

## Task Next: COC(=O)N1CCC2(CC1)CCN(c1cccc(-c3ccccc3)c1)CC2
## Result 13% (inactive)

## Task Next: Cc1nc2cnc(Oc3ccccc3)nc2n(Cc2cccs2)c1=O
## Result -0.465% (inactive)

## Task Next: COc1ccc(-n2c(=O)c(-c3cn(C)c4ccccc34)nc3cncnc32)cc1
## Result -19.8% (inactive)

## Task Next: O=S(=O)(c1ccccc1)N1CCC2(CCN(c3ncccn3)CC2)CC1
## Result -15.6% (inactive)

## Task Next: O=C(c1ccncc1)N1CCC2(CC1)CCN(c1ccncc1)CC2
## Result 5.08% (inactive)

## Task Next: N#Cc1cccc(-c2nccc(NCc3ccccc3)n2)c1
## Result -6.24% (inactive)

## Task Next: CS(=O)(=O)N1CCC2(CCCN(C(c3ccccc3)c3ccccc3)C2)CC1
## Result 12.1% (inactive)

----------
Assay: Stat Signaling Pathway (AID 446);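 further: ME-180 cervical cancer cells given 40 pM IL-6 alongside compound; SIE-controlled beta-lactamase reporter measured as 460/530 nm FRET emission ratio; on the % scale 0 is the no-effect control and ±100 the full control effect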
Conditions: ME-180 (cervical carcinoma) SIE beta-lactamase reporter, IL-6 stimulated, 5 h; at 7.69 µM (top of the series) unless noted
Records with an inconclusive call do not appear. Active and inactive are the calls of the source. Calls follow the shape of the dose curve; as a rule, active = well fitted curve in either direction with a large enough effect (not every such curve was filed as active); inconclusive = small, poorly fitted or top-dose-only effect, or another doubt; inactive = flat fitted curve, though single readings scatter.
Can you tell me activity, negative = inhibition for the items I'm about to list?

## Task Quick one: activity, negative = inhibition for COc1ccccc1-c1cc(Nc2ccn[nH]2)ncn1 ?
## Result 6.94% (inactive)

## Task Next: O=c1c(-c2cc(F)cc(F)c2)nc2cncnc2n1Cc1ccc(F)cc1
## Result -0.133% (inactive)

## Task Next: CN(C)Cc1ccccc1-c1ccc2ncnc(NCc3ccccc3)c2c1
## Result 11.3% (inactive)

## Task Next: O=C(c1cccc(F)c1)N1CCC2(CC1)CCN(c1ccc(-c3ccccc3)cc1)CC2
## Result -7.26% (inactive)

## Task Next: O=C(c1cccc(F)c1)N1CCC2(CC1)CN(c1ccc(-c3ccccc3)cc1)C2
## Result -20.4% (inactive)

## Task Next: CN(C)C(=O)c1ccc(-c2ccc3ncnc(NCCN4CCOCC4)c3c2)cc1
## Result -17.4% (inactive)

## Task Next: O=C(c1csnn1)N1CCC2(CCCN(Cc3ccccc3)C2)CC1
## Result -5.61% (inactive)

## Task Next: COc1ncc2nc(C)c(=O)n(Cc3cccs3)c2n1
## Result -7.75% (inactive)

## Task Next: Cc1ccccc1-c1cncnc1N1CCN(C)CC1
## Result 11.4% (inactive)

## Task Next: COc1cccc(Nc2ncc3nc(-c4cc(F)cc(F)c4)c(=O)n(C4CC4)c3n2)c1
## Result -7.32% (inactive)

## Task Next: COc1ccc2[nH]cc(CCNc3ccnc(-c4ccccc4C)n3)c2c1
## Result -1.84% (inactive)
